# assay remarks: RP, Waters ACQUITY UPLC BEH C18, 50 × 2.1 mm, 1.7 µm, 40 °C, 0.6 mL/min, estimated dead time 0.18 min; A: water + 0.1% formic acid, pH 3; B: acetonitrile + 0.1% formic acid, pH 3; gradient (min/%B) 0/5 7/100 8/100
# experimental context: stereoisomer not certain
Give LC retention time for every item shown.
// return the numeric value with its unit appended

Value of measured LC retention time for the entry C=C(C(=O)C(O)C(C)C1C(OC(C)=O)CC2(C)C3CCC4C(C)C(=O)CCC45CC35CCC12C)C(C)CO (stereo not drawn) : 4.6 min

Value of measured LC retention time for the entry Cc1ccc2c(c1)C1(C(C)C)CCC2(C)OO1 (stereo not drawn) : 4.34 min

Value of measured LC retention time for the entry COc1c2occc2cc2ccc(=O)oc12 [9-methoxy-7H-furo[3,2-g]chromen-7-one] : 2.49 min

Value of measured LC retention time for the entry CC1(C)CCC[C@]2(COC(=O)/C=C/c3ccc(O)c(O)c3)C1CC[C@@]13C[C@@H](CCC12)[C@@](O)(CO)C3 (stereo partly drawn) : 3.16 min

Value of measured LC retention time for the entry CC(C)=CCc1c2c(c(O)c3c1OC14C(=CC5CC1C(C)(C)OC4(CC=C(C)C(=O)O)C5=O)C3=O)C=CC(C)(C)O2 (stereo not drawn) : 5.38 min

Value of measured LC retention time for the entry CC1(C(=O)O)CCCC2(C)C3CCC4CC3(C=C4C=O)CCC12 (stereo not drawn) : 4 min

Value of measured LC retention time for the entry COc1cc2c3cc1Oc1c(cccc1OC)CC1c4c(cc(OC)c(OC)c4Oc4cccc(c4)CC3N(C)CC2)CCN1C (stereo not drawn) : 1.7 min

Value of measured LC retention time for the entry COc1cc2c(cc1OC)-c1c3c(cc4c1C(C2)N(C)CC4)OCO3 (stereo not drawn) : 1.84 min

###

# assay remarks: RP, Waters ACQUITY UPLC BEH C18, 50 × 2.1 mm, 1.7 µm, 40 °C, 0.6 mL/min, estimated dead time 0.18 min; A: water + 0.1% formic acid, pH 3; B: acetonitrile + 0.1% formic acid, pH 3; gradient (min/%B) 0/5 7/100 8/100
# experimental context: stereoisomer not certain
# if measured LC retention time < 4 min: 1  # else: 0

Problem: Please determine if COC(=O)C1=COC(OC2OC(CO)C(O)C(O)C2O)C2C(O)CN3CCc4c([nH]c5ccccc45)[C@@H]3CC12 (stereo partly drawn) is below 4 min in terms of LC retention time.
Solution: 1

Problem: Please determine if O=C1c2c(O)cc(O)c(C3C(=O)c4c(O)cc(O)cc4OC3c3ccc(O)cc3)c2OC(c2ccc(O)cc2)C1O (stereo not drawn) is below 4 min in terms of LC retention time.
Solution: 1

Problem: Please determine if Cc1coc2c1C(=O)C(=O)c1c-2ccc2c(C)cccc12 [1,6-dimethyl-10H,11H-phenanthro[1,2-b]furan-10,11-dione] is below 4 min in terms of LC retention time.
Solution: 1

Problem: Please determine if CC(C)=CCCC(C)C12C=CC(C)(CC1)OO2 (stereo not drawn) is below 4 min in terms of LC retention time.
Solution: 0

Problem: Please determine if CC1CC(O)C2(C)C(CCC(O)C2(C)O)C1(C)CC(=O)c1ccoc1 (stereo not drawn) is below 4 min in terms of LC retention time.
Solution: 1

Problem: Please determine if C=C1COC(=O)C12C[C@@]1(C)C([C@@H](OC(=O)/C(C)=C\C)CC[C@@H]1C)[C@H]2OC(C)=O (stereo partly drawn) is below 4 min in terms of LC retention time.
Solution: 0

Problem: Please determine if C=C(C(=O)CC(C)C1CCC2(C)C3CCC4C(C)(C(=O)OC5OC(C)C(O)C(O)C5O)C(O)CCC45CC35CCC12C)C(C)C (stereo not drawn) is below 4 min in terms of LC retention time.
Solution: 0

Problem: Please determine if CC12CCC(C(OC(=O)/C=C/c3ccc(O)cc3)C1)C2(C)C (stereo not drawn) is below 4 min in terms of LC retention time.
Solution: 0

These entries and their values trace back to the RepoRT retention time repository.
